Hey, just so you know, these numbers are from patent US7829728B2.

# study.system: human β2 adrenergic receptor (Homo sapiens, UniProt P07550)
# Sequence (P07550 whole entry): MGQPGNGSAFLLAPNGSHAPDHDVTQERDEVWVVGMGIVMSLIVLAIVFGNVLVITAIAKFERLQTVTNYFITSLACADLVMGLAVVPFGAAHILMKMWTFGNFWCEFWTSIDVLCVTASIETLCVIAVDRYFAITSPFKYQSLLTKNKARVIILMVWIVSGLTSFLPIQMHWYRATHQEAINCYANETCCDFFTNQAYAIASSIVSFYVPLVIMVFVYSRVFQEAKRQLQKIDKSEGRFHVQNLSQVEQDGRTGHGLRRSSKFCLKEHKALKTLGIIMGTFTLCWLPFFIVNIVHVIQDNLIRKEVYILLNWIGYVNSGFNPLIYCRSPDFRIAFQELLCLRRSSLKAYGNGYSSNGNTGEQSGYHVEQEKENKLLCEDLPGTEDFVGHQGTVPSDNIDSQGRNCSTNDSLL
# method: Whole-cell cAMP Flashplate assay in CHO cell lines heterologously expressing human β2 adrenergic receptor (Assay Test Procedure C)
# Assay type: cell-based
# Design: expressed in transfected cells; host or cells: CHO cells, membranes
# condition.context: cAMP, CHO-K1 cells expressing cloned human β2 receptor
readout.name: EC50

Fill in the blank: the reported EC50 of NC(=O)C(c1ccccc1)(c1ccccc1)[C@@H]1CCN(CCCCCCCCCNCC(O)c2ccc(O)c3[nH]c(=O)ccc23)C1 (mixture of isomers) is ____.
< 0.01 µM

* * *

# study.system: human β2 adrenergic receptor (Homo sapiens, UniProt P07550)
# method: Whole-cell cAMP Flashplate assay with a lung epithelial cell line (BEAS-2B) endogenously expressing human β2 adrenergic receptor (Assay Test Procedure E)
# Type: cell-based
# condition.context: BEAS-2B human lung epithelial cells, endogenous receptor
pEC50: −log10 of the molar value.
readout.name: pEC50

Fill in the blank: the reported pEC50 of NC(=O)C(c1ccccc1)(c1ccccc1)[C@@H]1CCN(CCCCCCCCCNCC(O)c2ccc(O)c3[nH]c(=O)ccc23)C1 (mixture of isomers) is ____.
> 8.00

* * *

# study.system: M3 muscarinic receptor (hM3) (Homo sapiens)
# Sequence (P20309 whole entry): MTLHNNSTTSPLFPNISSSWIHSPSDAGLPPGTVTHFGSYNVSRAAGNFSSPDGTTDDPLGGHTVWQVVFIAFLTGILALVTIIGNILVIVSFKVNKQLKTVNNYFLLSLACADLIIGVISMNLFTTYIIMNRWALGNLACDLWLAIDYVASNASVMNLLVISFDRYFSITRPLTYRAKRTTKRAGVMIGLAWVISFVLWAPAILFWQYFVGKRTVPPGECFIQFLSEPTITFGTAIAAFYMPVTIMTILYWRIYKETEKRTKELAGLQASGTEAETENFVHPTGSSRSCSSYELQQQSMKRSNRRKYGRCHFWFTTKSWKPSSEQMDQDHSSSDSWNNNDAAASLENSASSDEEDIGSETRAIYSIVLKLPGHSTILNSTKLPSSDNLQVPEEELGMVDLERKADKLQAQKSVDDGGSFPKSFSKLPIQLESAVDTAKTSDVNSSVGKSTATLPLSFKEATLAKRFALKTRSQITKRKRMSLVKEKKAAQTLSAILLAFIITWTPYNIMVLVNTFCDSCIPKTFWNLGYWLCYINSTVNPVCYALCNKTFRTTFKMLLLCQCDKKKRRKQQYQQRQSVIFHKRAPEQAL
readout.name: Ki

Fill in the blank: the reported Ki of NC(=O)C(c1ccccc1)(c1ccccc1)[C@@H]1CCN(CCCCCCCCCNCC(O)c2ccc(O)c3[nH]c(=O)ccc23)C1 (mixture of isomers) [Example 1] is ____.
< 50 nM
